tested on: human nasopharyngeal carcinoma cell line CNE-2; experiment: MTT cell growth inhibition, CNE-2; assay type: cell-based; conditions: Homo sapiens; CNE-2, MTT assay, 72 h; read-out: IC50, growth of tumor cell line
pIC50: −log10 of the molar value.
Think of 8 as a floor: if pIC50 stands on it or above, it is criterion met; beneath it, criterion not met.

Form field: pIC50 at least 8? Entry: CC[C@]12C=CCN3CC[C@@]4(c5cc([C@@]6(C(=O)OC)C[C@@H]7C[C@@H](C(C)(F)F)CN(Cc8c6[nH]c6ccccc86)C7)c(OC)cc5N(C)[C@H]4[C@@](O)(C(=O)OC)[C@@H]1OC(C)=O)[C@@H]32 [Vinflunine, reference compound]
criterion not met

Form field: pIC50 at least 8? Entry: CC[C@]1(O)C[C@@H]2CN(CCc3c([nH]c4ccccc34)[C@@](C(=O)OC)(c3cc4c(cc3OC)N(C)[C@H]3[C@@](O)(C(=O)OC)[C@H](OC(C)=O)[C@]5(CC)C=CCN6CC[C@]43[C@@H]65)C2)C1 [Vinblastine, reference compound]
criterion met

Form field: pIC50 at least 8? Entry: CC[C@]12C=CCN3CC[C@@]4(c5cc([C@@]6(C(=O)OC)C[C@@H]7C[C@@H](C(C)(F)F)CN(Cc8c6[nH]c6ccccc86)C7)c(OC)cc5N(C)[C@H]4[C@@](O)(C(=O)NN)[C@@H]1O)[C@@H]32 [JJ-CCFN, hydrazinolyzed vinflunine]
criterion not met

Form field: pIC50 at least 8? Entry: CCC1=C[C@@H]2CN(C1)Cc1c([nH]c3ccccc13)[C@@](C(=O)OC)(c1cc3c(cc1OC)N(C)[C@H]1[C@@](O)(C(=O)NN)[C@H](O)[C@]4(CC)C=CCN5CC[C@]31[C@@H]54)C2 [JJ-CCRB, hydrazinolyzed vinorelbine]
criterion not met

Form field: pIC50 at least 8? Entry: CC[C@]1(O)C[C@H]2CN(CCc3c([nH]c4ccccc34)[C@@](C(=O)OC)(c3cc4c(cc3OC)N(C=O)[C@H]3[C@@](O)(C(=O)OC)[C@H](OC(C)=O)[C@]5(CC)C=CCN6CC[C@]43[C@@H]65)C2)C1 [Vincristine, reference compound]
criterion met

---

I'd be grateful if you could share measured Tumor weight for these entries.
test system: MDA-MB-231 xenografts; assay: MDA-MB-231 xenografts in nude mice; format: in vivo, BALB/nu/nu mice; conditions: MDA-MB-231 xenograft nude mice, 1 mg/kg i.p. every two days, 8 administrations
Expressed in g, but write only the number.

GET /values?readout=Tumor weight&item= CC[C@]1(O)C[C@@H]2CN(CCc3c([nH]c4ccccc34)[C@@](C(=O)OC)(c3cc4c(cc3OC)N[C@H]3[C@@](O)(C(=O)NN)[C@H](O)[C@]5(CC)C=CCN6CC[C@]43[C@@H]65)C2)C1 [JJ-CCXJ, hydrazinolyzed vincristine]
0.63

GET /values?readout=Tumor weight&item= CCC1=C[C@@H]2CN(C1)Cc1c([nH]c3ccccc13)[C@@](C(=O)OC)(c1cc3c(cc1OC)N(C)[C@H]1[C@@](O)(C(=O)NN)[C@H](O)[C@]4(CC)C=CCN5CC[C@]31[C@@H]54)C2 [JJ-CCRB, hydrazinolyzed vinorelbine]
0.59

GET /values?readout=Tumor weight&item= CCC1=CC2CN(C1)Cc1c([nH]c3ccccc13)C(C(=O)OC)(c1cc3c(cc1OC)N(C)C1C(O)(C(=O)NNC(=O)C4CCCN4C(=O)CNC(=O)OCc4ccccc4)C(O)C4(CC)C=CCN5CCC31C54)C2 (stereo not drawn)
0.37

GET /values?readout=Tumor weight&item= CC[C@]1(O)C[C@@H]2CN(CCc3c([nH]c4ccccc34)[C@@](C(=O)OC)(c3cc4c(cc3OC)N(C)[C@H]3[C@@](O)(C(=O)NN)[C@H](O)[C@]5(CC)C=CCN6CC[C@]43[C@@H]65)C2)C1 [JJ-CCJ, hydrazinolyzed vinblastine]
0.32

GET /values?readout=Tumor weight&item= CC[C@]1(O)C[C@@H]2CN(CCc3c([nH]c4ccccc34)[C@@](C(=O)OC)(c3cc4c(cc3OC)N(C)[C@H]3[C@@](O)(C(=O)OC)[C@H](OC(C)=O)[C@]5(CC)C=CCN6CC[C@]43[C@@H]65)C2)C1 [Vinblastine, reference compound]
1.22

GET /values?readout=Tumor weight&item= CCC12C=CCN3CCC4(c5cc(C6(C(=O)OC)CC7CC(C(C)(F)F)CN(Cc8c6[nH]c6ccccc86)C7)c(OC)cc5N(C)C4C(O)(C(=O)NNC(=O)C4CCCN4C(=O)CNC(=O)OCc4ccccc4)C1O)C32 (stereo not drawn)
0.31
